# Tested on: Leukotriene D4 Receptor (Cavia porcellus, UniProt Q2NNR5)
# Construct: guinea pig pulmomembranous protein; from tissue; host or cells: guinea pig lung membranes
# Method: Leukotriene D4 Receptor Binding Inhibition Test
# Set-up: species or system guinea pig
# Recorded conditions: read-out: LTD4 receptor, inhibition rate (%) at a high concentration
Recorded endpoint: inhibition at 10 µM (%)

(1) O=C(O)c1ccc(O)c(C(=O)/C=C/c2ccccc2OCc2ccccc2)c1
(2) CCOC(=O)c1ccc(O)c(C(=O)C=Cc2ccc(OCc3ccc4ccccc4n3)cc2)c1
(3) CCOCCn1c(COc2cccc(C=CC(=O)c3ccc(C(=O)O)cc3O)c2)nc2ccccc21
Order the 3 molecules from highest to lowest inhibition at 10 µM. # the answer lists labels in the order requested
3, 2, 1
(3: 26%, 2: 16%, 1: 0%)

###

# Tested on: isolated guinea pig ileum
# Method: Antileukotriene D4 Action (In vitro Test): isotonic contractive response of isolated ileum to leukotriene D4
# Format: cell-based
# Recorded conditions: Cavia porcellus, 0.5 h, Krebs buffer 37° C., 30 minutes incubation with test compound, read-out: Anti-LTD4 action (IC50 value)
Recorded endpoint: IC50 (nM)

(a) COc1ccc(C(=O)O)cc1C(=O)/C=C/c1ccc(OCc2ccc3ccccc3n2)cc1
(b) CCOCCn1c(COc2ccc(C=CC(=O)c3cc(-c4nn[nH]n4)ccc3O)cc2)nc2ccccc21
(c) O=C(O)c1cccc(C(=O)/C=C/c2cccc(C=Cc3ccc4ccccc4n3)c2)c1O
(d) O=C(/C=C/c1ccc(OCc2ccc3ccccc3n2)cc1)c1cc(-c2nnn[nH]2)ccc1O
# ascending order, key=IC50 // ordering of labels required in reply
d, c, a, b

###

# Tested on: Leukotriene D4 Receptor (Cavia porcellus, UniProt Q2NNR5)
# Construct: guinea pig pulmomembranous protein; from tissue; host or cells: guinea pig lung membranes
# Method: Leukotriene D4 Receptor Binding Inhibition Test
# Set-up: species or system guinea pig
# Recorded conditions: read-out: LTD4 receptor, dissociation constant KD
# Protocol: An ice-cold tris hydrochloride/sodium chloride buffer (10 mM/100 mM, pH 7.5) was added to terminate the reaction, followed by immediate filtration through a Wattman CF/C filter. The filter was washed twice with 20 ml aliquots of the ice-cold buffer. The radio-activity of the residue was measured by a liquid scintillation counter. […] Using the Cheng-Prusoff formula, a dissociation constant (KD) was calculated from the IC50.
pKd: −log10 of the molar value.
Recorded endpoint: pKd

{"columns": ["Smiles input", "Tested on", "pKd"],
 "data": [
  ["O=C(O)c1cccc(C(=O)/C=C/c2ccc(OCc3ccc4ccccc4n3)cc2)c1O", "Leukotriene D4 Receptor (Cavia porcellus, UniProt Q2NNR5)", 6.51]
]}

(1) O=C(O)c1cc(F)cc(C(=O)/C=C/c2ccc(OCc3ccc4ccccc4n3)cc2)c1O
(2) O=C(O)c1cc(Cl)cc(C(=O)/C=C/c2ccc(OCc3ccc4ccccc4n3)cc2)c1O
Rank 1 against 2 by their pKd values and give the higher one. Returns: label corresponding to the selected item.
1
(1: 6.40, 2: 6.14)

###

# Tested on: Leukotriene D4 Receptor (Cavia porcellus, UniProt Q2NNR5)
# Construct: guinea pig pulmomembranous protein; from tissue; host or cells: guinea pig lung membranes
# Sequence (Q2NNR5 1-340): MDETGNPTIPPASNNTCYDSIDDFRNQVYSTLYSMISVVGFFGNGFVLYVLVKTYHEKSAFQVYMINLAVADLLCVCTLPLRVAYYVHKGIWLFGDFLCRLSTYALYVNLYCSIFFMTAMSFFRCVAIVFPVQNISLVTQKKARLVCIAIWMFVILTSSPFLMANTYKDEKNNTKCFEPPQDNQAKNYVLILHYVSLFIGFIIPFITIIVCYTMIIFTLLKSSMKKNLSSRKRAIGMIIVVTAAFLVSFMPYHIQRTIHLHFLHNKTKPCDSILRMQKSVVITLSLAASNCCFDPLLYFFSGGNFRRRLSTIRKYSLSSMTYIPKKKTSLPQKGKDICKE
# Method: Leukotriene D4 Receptor Binding Inhibition Test
# Set-up: species or system guinea pig
# Recorded conditions: read-out: LTD4 receptor, inhibition rate (%) at a high concentration
Recorded endpoint: inhibition at 10 µM (%)

{"columns": ["Compound", "Quantity unit", "inhibition at 10 µM"],
 "data": [
  ["CCCCOc1ccc(C(=O)O)cc1C(=O)C=Cc1ccc(OCc2ccc3ccccc3n2)cc1 [Example 32]", "%", 41],
  ["O=C(O)c1ccc(O)c(C(=O)/C=C/c2ccc(OCc3ccccc3)cc2)c1 [Example 4]", "%", 23]
]}

(1) O=C(/C=C/c1ccc(OCc2ccc3ccccc3c2)cc1)c1cc(-c2nnn[nH]2)ccc1O [Example 26]
(2) N#Cc1ccc(O)c(C(=O)/C=C/c2cccc(OCc3ccc4ccccc4n3)c2)c1 [Example 58]
(3) N#Cc1cccc(C(=O)/C=C/c2ccc(OCc3ccc4ccccc4n3)cc2)c1 [Example 35, 3'-cyano-4-(2-quinolylmethoxy)-chalcone]
(4) O=C(O)c1ccc(O)c(C(=O)/C=C/c2ccccc2OCc2ccc3ccccc3n2)c1 [Example 3]
Please put the entries in order of rising inhibition at 10 µM. Would you mind listing the labels in the order requested?
1, 3, 4, 2
(1: 4%, 3: 8%, 4: 18%, 2: 38%)
